# credit: ChEMBL document CHEMBL1127689

For each record, write down the corresponding Km.
# system_tested: Amine oxidase [flavin-containing] B (Bos taurus)
# experimental_details: Oxidation by bovine mono-amine oxidase B MAO-B
# measurement_context: cattle
The response must be a number in µM with no trailing unit.

Ask: Entry CN1CC=C(Cc2ccccc2)CC1 : reported Km = ?
Result: 154

Ask: Try this compound too: NCc1ccccc1
Result: 290

Ask: Try this compound too: CN1CC=C(Cc2cccc3ccccc23)CC1
Result: 847

###

# system_tested: UniProtKB P56560
# experimental_details: Turnover number (TN) for bovine mono-amine oxidase B MAO-B
# measurement_context: cattle
observation_type: TN

Ask: Entry CN1CC=C(Oc2ccc3ccccc3c2)CC1 : reported TN = ?
Result: 333 M min-1 M-1

Ask: Try this compound too: CN1CC=C(Oc2ccccc2)CC1
Result: 241 M min-1 M-1

Ask: Try this compound too: NCc1ccccc1
Result: 283 M min-1 M-1

Ask: Try this compound too: CN1CC=C(Cc2cc3ccccc3c3ccccc23)CC1
Result: > 53 M min-1 M-1

Ask: Try this compound too: CN1CC=C(Cc2ccc3ccccc3c2)CC1
Result: 276 M min-1 M-1

Ask: Try this compound too: CN1CC=C(Oc2cccc3ccccc23)CC1
Result: 81 M min-1 M-1

Ask: Try this compound too: CN1CC=C(Oc2ccc(Cl)cc2Cl)CC1
Result: 223 M min-1 M-1

Ask: Try this compound too: CN1CC=C(Cc2ccccc2)CC1
Result: 193 M min-1 M-1

Ask: Try this compound too: CN1CC=C(c2ccccc2)CC1
Result: 204 M min-1 M-1

Ask: Try this compound too: CCCCc1ccc(OC2=CCN(C)CC2)cc1
Result: 92 M min-1 M-1

Ask: Try this compound too: CN1CC=C(Oc2ccc(C(C)(C)C)cc2)CC1
Result: 22 M min-1 M-1

Ask: Try this compound too: CN1CC=C(Cc2cccc3ccccc23)CC1
Result: 89 M min-1 M-1

Ask: Try this compound too: CN1CC=C(Oc2cc3ccccc3c3ccccc23)CC1
Result: > 200 M min-1 M-1

Ask: Try this compound too: CN1CC=C(Oc2ccc(-c3ccccc3)cc2)CC1
Result: 103 M min-1 M-1

###

# system_tested: MAO-B (Bos taurus)
# Sequence (P56560 whole entry): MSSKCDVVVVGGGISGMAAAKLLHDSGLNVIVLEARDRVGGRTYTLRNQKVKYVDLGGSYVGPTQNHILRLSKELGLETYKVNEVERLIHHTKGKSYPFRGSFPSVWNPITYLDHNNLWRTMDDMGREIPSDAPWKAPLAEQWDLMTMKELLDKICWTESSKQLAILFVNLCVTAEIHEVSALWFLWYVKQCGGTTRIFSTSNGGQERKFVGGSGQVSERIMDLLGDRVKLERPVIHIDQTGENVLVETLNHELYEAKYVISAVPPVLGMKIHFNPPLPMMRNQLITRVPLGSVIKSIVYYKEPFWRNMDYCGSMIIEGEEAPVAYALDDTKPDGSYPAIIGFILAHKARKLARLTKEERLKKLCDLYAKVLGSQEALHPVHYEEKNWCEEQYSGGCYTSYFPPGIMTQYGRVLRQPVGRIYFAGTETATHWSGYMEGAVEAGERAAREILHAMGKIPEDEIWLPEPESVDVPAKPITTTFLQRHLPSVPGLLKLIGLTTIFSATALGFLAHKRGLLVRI
# experimental_details: Oxidation by bovine mono-amine oxidase B MAO-B
# measurement_context: cattle, bovine monoamine oxidase B (MAO-B) enzyme
observation_type: Km

Ask: Entry CN1CC=C(Oc2cc3ccccc3c3ccccc23)CC1 : reported Km = ?
Result: > 1000 µM

###

# system_tested: Amine oxidase [flavin-containing] A (Homo sapiens, UniProt P21397)
# Sequence (P21397 whole entry): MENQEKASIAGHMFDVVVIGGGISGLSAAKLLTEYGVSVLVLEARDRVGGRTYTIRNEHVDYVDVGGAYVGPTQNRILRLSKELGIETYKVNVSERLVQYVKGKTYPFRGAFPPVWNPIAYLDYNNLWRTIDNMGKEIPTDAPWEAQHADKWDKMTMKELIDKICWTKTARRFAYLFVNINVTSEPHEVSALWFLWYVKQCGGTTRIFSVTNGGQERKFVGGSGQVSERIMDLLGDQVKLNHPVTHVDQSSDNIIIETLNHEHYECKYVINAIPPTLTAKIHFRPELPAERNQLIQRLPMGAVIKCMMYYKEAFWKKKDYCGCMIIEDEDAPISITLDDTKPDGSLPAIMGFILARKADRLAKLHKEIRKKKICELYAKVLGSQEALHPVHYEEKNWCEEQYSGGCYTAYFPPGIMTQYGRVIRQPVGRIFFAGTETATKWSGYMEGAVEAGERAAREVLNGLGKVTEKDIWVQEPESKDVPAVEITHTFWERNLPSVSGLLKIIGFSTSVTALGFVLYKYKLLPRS
# experimental_details: Ratio of turnover to Km for human MAO-A
observation_type: Ratio
// return just the number, without any unit appended

Ask: Entry CN1CC=C(Oc2ccc(Cl)cc2Cl)CC1 : reported Ratio = ?
Result: 3290

Ask: Try this compound too: CN1CC=C(c2ccccc2)CC1
Result: 143

Ask: Try this compound too: NCCC(=O)c1ccccc1N
Result: 860

Ask: Try this compound too: CN1CC=C(Cc2ccc3ccccc3c2)CC1
Result: 3340

Ask: Try this compound too: CN1CC=C(Cc2cccc3ccccc23)CC1
Result: 2590

Ask: Try this compound too: CN1CC=C(Oc2cccc3ccccc23)CC1
Result: 1567

Ask: Try this compound too: CN1CC=C(Oc2ccc(C(C)(C)C)cc2)CC1
Result: 855

Ask: Try this compound too: CN1CC=C(Cc2cc3ccccc3c3ccccc23)CC1
Result: 759

Ask: Try this compound too: CCCCc1ccc(OC2=CCN(C)CC2)cc1
Result: 1676

Ask: Try this compound too: CN1CC=C(Oc2cc3ccccc3c3ccccc23)CC1
Result: 212

Ask: Try this compound too: CN1CC=C(Cc2ccccc2)CC1
Result: 139

Ask: Try this compound too: CN1CC=C(Oc2ccc(-c3ccccc3)cc2)CC1
Result: 1710

Ask: Try this compound too: CN1CC=C(Oc2ccccc2)CC1
Result: 2359

Ask: Try this compound too: CN1CC=C(Oc2ccc3ccccc3c2)CC1
Result: 2685
